target: Serine/threonine-protein kinase pim-3 (Homo sapiens, UniProt Q86V86); assay: Inhibition of N-terminal 6-His tagged human recombinant PIM3 using PIM tide (ARKRRRHPSGPPTA) as substrate incubated for 1 hr by fluorescence based assay
pIC50: −log10 of the molar value.
Catalogue of molecules with associated pIC50
OUTCOME MEASURE: pIC50

• CN1CCOc2c1cnn1c(-c3ccc4cccc(NC5CCNCC5)c4n3)nnc21 = 7.02
• c1ccc(OCCN2CCOc3c2cnn2c(-c4ccc5cccc(NCC6CCNCC6)c5n4)nnc32)cc1 = 6.85
• CN1CCOc2c1cnn1c(-c3ccc4cccc(NCC5CCNCC5)c4n3)nnc21 = 7.77
• CN1CCOc2c1cnn1c(-c3ccc4ccnc(NC5CCCCC5)c4c3)nnc21 = 6.62
• CN1CCOc2c1cnn1c(-c3ccc4cccc(NC5CCCCC5)c4n3)nnc21 = 6.52
• CN1CCOc2c1cnn1c(-c3ccc4cc(F)cc(NCC5(F)CCNCC5)c4n3)nnc21 = 8.15
• CN1CCOc2c1cnn1c(-c3ccc4cc(Cl)cc(NCC5(F)CCNCC5)c4n3)nnc21 = 9.00
• CN1CCOc2c1cnn1c(-c3ccc4cccc(NC5CCCCC5)c4c3)nnc21 = 5.81
• CN1CCOc2c1cnn1c(-c3ccc4c(F)ccc(NCC5(F)CCNCC5)c4n3)nnc21 = 7.85
• CN1CCOc2c1cnn1c(-c3ccc4cccc(NC5CCC(C)(C)CC5)c4n3)nnc21 = 5.39
• CN1CCOc2c1cnn1c(-c3ccc4cccc(NC5CCOCC5)c4n3)nnc21 = 6.45
• CC(C)N1CCOc2c1cnn1c(-c3ccc4cccc(NCC5CCNCC5)c4n3)nnc21 = 7.12
• CN1CCC(CNc2cccc3ccc(-c4nnc5c6c(cnn45)N(C)CCO6)nc23)CC1 = 7.09
• CN1CCOc2c1cnn1c(-c3ccc4cccc(NCC5CCOCC5)c4c3)nnc21 = 6.55
• CN1CCOc2c1cnn1c(-c3ccc4cccc(N5CCC(N)CC5)c4n3)nnc21 = 7.10
• CN1CCOc2c1cnn1c(-c3ccc4c(F)c(F)cc(NCC5(F)CCNCC5)c4n3)nnc21 = 7.92
• CN1CCOc2c1cnn1c(-c3ccc4cccc(N5CCNCC5)c4n3)nnc21 = 6.59
• CN1CCOc2c1cnn1c(-c3ccc4ccnc(NCC5CCNCC5)c4c3)nnc21 = 8.22
• CN1CCOc2c1cnn1c(-c3ccc4cccc(NCC5(F)CCNCC5)c4n3)nnc21 = 7.26
